- protocol-summary: Immunosuppressive activity against PHA-stimulated proliferation in rat T-lymphocytes assessed as cell viability at 100 uM after 6 days by [3H]thymidine incorporation method relative to control
- Format: functional
- particulars: read-out: Activity
So basically: is viability at 100 µM under 90%? Then 1. Not under? Then -1.

Query block: Criterion: viability at 100 µM strictly below 90%. Is it met by `Nc1ccn([C@@H]2O[C@H](CO)[C@@H](O)[C@@H]2O)c(=O)n1` ?
Result block: 1

Query block: Criterion: viability at 100 µM strictly below 90%. Is it met by `Nc1ncnc2c1ncn2[C@@H]1OC[C@@](O)(CO)[C@H]1O` ?
Result block: 1

Query block: Criterion: viability at 100 µM strictly below 90%. Is it met by `Nc1ncnc2c1ncn2[C@@H]1O[C@H](CO)[C@@H](O)[C@@H]1O` ?
Result block: -1
